Test: PSAC antagonists in infected red cells, primary screen, cell-based, P. falciparum Indochina, OD700, 2 h (AID 1155);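 further: lysis reports solute entry through the parasite surface anion channel PSAC; channel blockers reduce lysis of infected cells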
Conditions: P. falciparum Indochina infected erythrocytes, osmotic lysis OD700, called active from +8 up or from −8 down
Calls of active or inactive are those of the source.
Tick one outcome: 1 (yes) = active, 0 (no) = inactive

compound: COc1ccc(C(=O)Nc2cccc(CN3C(=O)[C@]4(O[C@H](CC(=O)N5CCC[C@H]5CO)[C@@H]([Si](C)(C)c5ccc(OC)cc5)[C@@H]4C)c4ccccc43)c2)cc1
class_label: 0 (no)
//
compound: COC(=O)c1c(CC[C@@H](CO)NC(=O)N[C@@H](Cc2ccccc2)Cn2cc(C3(O)CCCCC3)nn2)oc(C(C)=O)c1C(=O)OC
class_label: 0 (no)
//
compound: Cc1ccc(S[C@]2(C(=O)NCC(C)C)CC(=O)N(Cc3ccccc3)[C@@H]2c2ccc(CO)cc2I)cc1
class_label: 0 (no)

Lookup: Tell me the assay call for COCCOC(=O)N1C(=O)[C@@]2(c3cc(C#CCCO)ccc31)[C@H](C(=O)NC[C@H](O)c1ccccc1)[C@H]1C(=O)O[C@H](c3ccccc3)[C@H](c3ccccc3)N1[C@@H]2c1ccc(O)cc1 please.
Found: 0 (no)

Lookup: Identify the outcome logged in this assay for the compound shown: COc1ccc([Si](C)(C)[C@@H]2[C@@H](CCn3cc([C@H](O)c4ccccc4)nn3)O[C@]3(C(=O)N(Cc4cccc(N5CCOC5=O)c4)c4ccccc43)[C@H]2C)cc1
Found: 1 (yes)

Lookup: Write down the call the test reported for this compound. Item: COc1cc2c(cc1O)C(C)N(Cc1cccc(OC(F)(F)F)c1)CC2 (centres undefined)
Found: 0 (no)

---

Test system: wheat germ agglutinin (Triticum aestivum), Alexa647-labelled
Assay: wheat germ agglutinin binders on compound microarrays, profiling panel, artefact control for SMM control-protein annotation, biochemical, small-molecule microarray, 635/667 nm fluorescence (AID 1140);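 further: score merges 667 nm feature emission with signal to noise over triplicate slides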
Conditions: WGA-A647 binding, 635 nm fluorescence, higher = more signal
measured_metric: composite z-score
Number only, no unit.

// worked examples, composite z-score included
compound: O=C1O[C@@H](c2ccccc2)[C@@H](c2ccccc2)N2[C@@H](c3ccc(OCCO)cc3)[C@]3(C(=O)Nc4ccc(C#CC5=CCCCC5)cc43)[C@@H](C(=O)O)[C@H]12
reported_value: 0.997
//
compound: O=C1O[C@H](c2ccccc2)[C@H](c2ccccc2)N2[C@H]1[C@@H](C(=O)Nc1nc3ccccc3s1)[C@]1(C(=O)Nc3ccccc31)[C@H]2c1ccc(O)cc1
reported_value: 0.705
//
compound: C=CCC(OC(C)=O)[C@@H]1[C@@H](N(Cc2cccc3ccccc23)C(=O)c2ccc(C)cc2)c2cc(OCCCO)ccc2N1C(=O)Cc1ccc(OC)cc1 (stereo partly drawn)
reported_value: 0.275
//
compound: CN1CCC(CCCO)=CC1c1ccc(CN2CCCC2)cc1 (stereo not drawn)
reported_value: 1.18
//
compound: COC(=O)C(CC#Cc1ccc2c(c1)[C@]1(C(=O)N2)[C@H](c2ccc(OCCO)cc2)N2[C@H](c3ccccc3)[C@H](c3ccccc3)OC(=O)[C@H]2[C@@H]1C(=O)NC[C@H](O)c1ccccc1)C(=O)OC
reported_value: 1.16
//
compound: O=C1OCCC=C[C@H]2OC34C=CCN(c5ccc6ccccc6c5)C(=O)[C@H]3N(CCCCCO)C(=O)[C@@H]4C12 (stereo partly drawn)
reported_value: 1.28
//
compound: C=CCC(OC(C)=O)[C@@H]1[C@@H](N(Cc2cccc3ccccc23)C(=O)c2cccc3ccccc23)c2cc(OCCCO)ccc2N1C(=O)c1ccc2ccccc2n1 (stereo partly drawn)
reported_value: -0.243
//
compound: O=C(CS)NCCCCCCNC(=O)[C@@H]1C[C@@H]2C(=O)N3CCC[C@H]3C(=O)N2[C@@H]1c1ccc(O)cc1
reported_value: -0.462

Lookup: Please report composite z-score for the following compound: COc1ccc(C#Cc2ccc3c(c2)[C@]2(C(=O)N3)[C@H](c3ccc(O)cc3)N3[C@H](c4ccccc4)[C@H](c4ccccc4)OC(=O)[C@H]3[C@@H]2C(=O)N2CCCCCCC2)cc1
Found: 1.35

Lookup: Provide composite z-score value for the following compound: COC(=O)[C@@]1(Cc2ccc(F)cc2)[C@H]2c3cc(C(=O)N(C)C)n(CCc4ccccn4)c3C[C@H]2CN1C(=O)c1ccccc1
Found: -0.108

Lookup: Give a short answer stating reported composite z-score for COc1ccc(C(O)C2C=CC3C(=O)N(C)C(=O)C3N2Nc2ccccc2)cc1OCc1ccccc1 (stereo not drawn) .
Found: 1.34

Lookup: Identify measured composite z-score corresponding to COCCCNC(=O)[C@@]1(CCC(=O)OC(C)(C)C)N=C(c2ccc(OCCCO)cc2)O[C@H]1c1ccccc1CN=[N+]=[N-]
Found: 1.2

Lookup: Please report composite z-score for the following compound: COCCOC(=O)N1C(=O)[C@@]2(c3cc(C#CCC(C(=O)OC)C(=O)OC)ccc31)[C@H](c1ccccc1OCCO)N1[C@H](c3ccccc3)[C@H](c3ccccc3)OC(=O)[C@H]1[C@@H]2C(N)=O
Found: 1.1

---

Experiment: PSAC antagonists in infected red cells, primary screen, cell-based, P. falciparum Indochina, OD700, 2 h (AID 1155);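 further: lysis reports solute entry through the parasite surface anion channel PSAC; channel blockers reduce lysis of infected cells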
Settings: P. falciparum Indochina infected erythrocytes, osmotic lysis OD700; higher = more signal, called active from +8 up or from −8 down
Assign class by z-score: not lower than 0.6 means YES; lower than 0.6 means NO.

Below are worked cases with known answers.
compound: O=C1OCCC=C[C@H]2OC34C=CCN(c5ccc6ccccc6c5)C(=O)[C@H]3N(CCCCCO)C(=O)[C@@H]4C12 (some centres not stated)
class_label: NO
--
compound: COCC1=C2[C@@H](CCc3ccccc3)OB(O)C[C@@H]2[C@@H]2C(=O)N(Cc3ccccc3)C(=O)[C@@H]2C1
class_label: NO
--
compound: O=C(CS)NCCCCCCNC(=O)[C@@H]1C[C@@H]2C(=O)N3CCC[C@H]3C(=O)N2[C@@H]1c1ccc(O)cc1
class_label: NO
--
compound: Cc1cc(C)cc(N2C(=O)CS(=O)(=O)C2c2cccc([N+](=O)[O-])c2)c1 (configuration not stated)
class_label: NO
--
compound: COCCOC(=O)N1C(=O)[C@@]2(c3cc(C#CCC(C(=O)OC)C(=O)OC)ccc31)[C@H](c1ccccc1OCCO)N1[C@H](c3ccccc3)[C@H](c3ccccc3)OC(=O)[C@H]1[C@@H]2C(N)=O
class_label: YES

Kindly consider the entry below.
Lookup: Confirm if z-score reported for the compound COCCOC(=O)N1C(=O)[C@@]2(c3cc(C#CCC(C(=O)OC)C(=O)OC)ccc31)[C@H](c1ccc(O)cc1)N1[C@H](c3ccccc3)[C@H](c3ccccc3)OC(=O)[C@H]1[C@@H]2C(N)=O is 0.6 or above.
Found: YES

---

Experiment: S. cerevisiae RM11-1a growth modifiers, primary screen, strain RM11-1a, OD600, basal, 24 h (AID 1177);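 further: cultures grown under basal conditions with no added stressor; test concentration not given here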
Conditions: OD600, 24 h, higher = more signal, called active from +8 up or from −8 down
measured_metric: z-score
I'd appreciate a reply containing only the number, no unit.

Solved entries (count: 6):
compound: Cc1ccccc1C(O)C1C=CC2C(=O)N(C)C(=O)C2N1Nc1ccccc1 (stereo unspecified)
z-score: -0.547
//
compound: NC(=O)NCC#Cc1ccc2c(c1)[C@]1(C(=O)N2)[C@H](C(=O)N2CCCCCCC2)[C@H]2C(=O)O[C@H](c3ccccc3)[C@H](c3ccccc3)N2[C@@H]1c1ccc(OCCO)cc1
z-score: 2.12
//
compound: O=C1[C@]2(CO)C=C(Br)[C@@H](C[C@@H]2c2ccccc2)[C@@]12CO2
z-score: 0.184
//
compound: [N-]=[N+]=Nc1ccccc1[C@@H]1OC(c2ccc(OCCCO)cc2)=N[C@]1(CCS(=O)(=O)c1ccccc1)C(=O)N1CCOCC1
z-score: 1.9
//
compound: O=C1OCCC/C=C\[C@H]2OC34C=CCN(Cn5nnc6ccccc65)C(=O)[C@H]3N(CCCCCO)C(=O)[C@@H]4C12 (stereo partly specified)
z-score: -0.564
//
compound: O=C1OCC=C[C@H]2OC34C=CCN(c5ccc6ccccc6c5)C(=O)[C@H]3N(CCCO)C(=O)[C@@H]4[C@@H]12 (stereo partly specified)
z-score: -0.13

Lookup: Answer with reported z-score of O=C(O)[C@H]1C[C@H]2C(=O)NCC(=O)N2[C@H]1c1ccc(O)cc1
Found: -0.804

Lookup: Please indicate z-score recorded for CCCC[C@@H]1C[C@H]1[C@@H](NC(=O)c1ccc(-c2ccccc2)cc1)c1ccc(-c2ccccc2)cc1
Found: 0.0066

Lookup: Specify measured z-score for CC=CC(O)C1C=CC2C(=O)N(c3ccccc3)C(=O)C2N1Nc1ccc(C(C)C)cc1 (stereo unspecified) .
Found: 1.11

Lookup: Look up z-score of O=c1oc(-c2ccccc2)nc2cc(Br)ccc12 and report it.
Found: 1.6

Lookup: Return value of z-score for input CC(C)c1ccc(NN2C(C(O)c3cccc(O)c3)C=CC3C(=O)N(c4ccccc4)C(=O)C32)cc1 (stereo unspecified) , no commentary.
Found: 1.63

Lookup: Indicate the recorded z-score value for this compound: C=CCNC(=O)[C@@H]1[C@H]2C(=O)O[C@H](c3ccccc3)[C@H](c3ccccc3)N2[C@H](c2ccc(OCCO)cc2)[C@@]12C(=O)Nc1ccccc12
Found: -0.412
